Provenance of the data: patent US4820695A

# Tested on: Escherichia coli TEM
# Assay Procedure: MIC, standard agar-dilution assay (Table IX)
# Format: cell-based
# Experimental Conditions: read-out: MIC
// MIC lookup, one value per entry
Readout: MIC

[[record]]
molecule = "CCC1OC(=O)CC(O)C(C)C(OC2OC(C)C(O)C(N(C)C)C2O)C(CCN2C[C@H](C)C[C@H](C)C2)CC(C)C(=O)C=CC(C)=CC1COC1OC(C)C(O)C(OC)C1OC (stereo partly drawn)"
readout = "MIC"
reported = "32 mg/L"

[[record]]
molecule = "CCC1OC(=O)CC(O)C(C)C(OC2OC(C)C(O)C(N(C)C)C2O)C(CCN2CCC3(CC2)OCCO3)CC(C)C(=O)C=CC(C)=CC1COC1OC(C)C(O)C(OC)C1OC (stereo not drawn)"
readout = "MIC"
reported = "64 mg/L"

[[record]]
molecule = "CCC1OC(=O)CC(O)C(C)C(OC2OC(C)C(O)C(N(C)C)C2O)C(CCN2CCCCCCC2)CC(C)C(=O)C=CC(C)=CC1COC1OC(C)C(O)C(O)C1OC (stereo not drawn)"
readout = "MIC"
reported = "16 mg/L"

